test: E. coli growth modulation, two-sided OD650, primary screen, E. coli filamentation project, strain DRC41, 24 h (AID 1093); details: OD650, 24 h, higher = more signal, called active from +8 up or from −8 down;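 further: MC1000 strain lacking acrAB efflux and sulA so SOS filamentation is blocked; test concentration not given here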
measured parameter: z-score
Answer with a bare number; do not write a unit.

Some solved entries appear below for comparison.
C=CC[C@]1(C(=O)NCCCOC)N=C(c2ccc(OCCCO)cc2)O[C@H]1c1ccccc1 : 0.753
COC(=O)c1c(CC[C@@H](CO)NC(=O)N[C@@H](Cc2ccccc2)Cn2cc(-c3cncn3C)nn2)oc(C(C)=O)c1C(=O)OC : 0.916
CCOC(=O)C[C@H]1[C@H](OC(=O)c2ccc(C(=O)c3ccccc3)cc2)[C@@H](NC(=O)c2ccc3ccccc3c2)c2cc(OCCCO)ccc2N1C(=O)c1ccc2ccccc2n1 : 1.79
C=CCC(OC(C)=O)[C@@H]1[C@@H](N(Cc2cccc3ccccc23)C(=O)c2ccc(-c3ccccc3)cc2)c2cc(OCCCO)ccc2N1C(=O)c1ccc2ccccc2n1 (some centres undefined) : -0.747
CC(=O)n1cc(C(O)C2C=CC3C(=O)N(c4ccccc4)C(=O)C3N2Nc2ccccc2F)c2ccccc21 (centres undefined) : 1.01
C=C(COC)C(=O)CC[C@@H](OC(C)=O)c1ccc(OCCO)cc1 : -0.0345

Data request: Given the molecule COc1ccc([Si](C)(C)[C@H]2[C@H](CCn3cc([C@H](O)c4ccccc4)nn3)O[C@@]3(C(=O)N(c4ccccc4)c4ccccc43)[C@@H]2C)cc1 , what is its reported z-score?
Data returned: 1.58

Data request: Dear colleague, I am looking for the recorded z-score of the following molecule: CCOC(=O)C1=CC[C@@H](c2ccccc2)N(S(=O)(=O)c2ccc(C)cc2)[C@H]1C#N
Data returned: -0.121

Data request: If you can, please state the reported z-score value of CCC(CC)C(O)C1C=CC2C(=O)N(C)C(=O)C2N1N1CCCCC1 (centres undefined) .
Data returned: -1.29

Data request: Item C=CCC(OC(C)=O)[C@@H]1[C@@H](N(Cc2cccc3ccccc23)C(=O)c2ccc(C)cc2)c2cc(OCCCO)ccc2N1C(=O)c1ccc2ccccc2n1 (some centres undefined) has what recorded z-score?
Data returned: 1.21

Data request: Reported z-score, molecule COCCOC(=O)N1C(=O)[C@@]2(c3ccccc31)[C@H](C(N)=O)[C@H]1C(=O)O[C@H](c3ccccc3)[C@H](c3ccccc3)N1[C@@H]2c1ccc(OCCO)cc1 : ____
Data returned: 0.935

Data request: Which z-score value is on record for CN(C)CCCCNC(=O)[C@H]1C[C@H]2C(=O)N[C@@H](Cc3ccccc3)C(=O)N2[C@H]1c1cccc(OCCO)c1 ?
Data returned: 1.13

Data request: What value of z-score has been recorded for this entry: COCCOC(=O)N1C(=O)[C@@]2(c3cc(C#Cc4ccc(OC)cc4)ccc31)[C@H](c1ccc(OCCO)cc1)N1[C@H](c3ccccc3)[C@H](c3ccccc3)OC(=O)[C@H]1[C@@H]2C(=O)N1CCCCCCC1
Data returned: 0.106

Data request: Fill blank: measured z-score of the molecule COCCOC(=O)N1C(=O)[C@@]2(c3cc(C#CCCO)ccc31)[C@H](c1ccc(O)cc1)N1[C@H](c3ccccc3)[C@H](c3ccccc3)OC(=O)[C@H]1[C@@H]2C(=O)N1CCc2cc(OC)c(OC)cc2C1 is ____.
Data returned: -0.617

* * *

target: Pro-neuregulin-1, membrane-bound isoform (Homo sapiens) (UniProt Q02297); experiment: NRG1 binders on small-molecule microarrays, primary screen, psychiatric disease protein project, biochemical, small-molecule microarray, fluorescence 635/667 (AID 1075); conditions: NRG1 binding, 635 nm fluorescence, higher = more signal;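 further: score combines 667 nm spot fluorescence with signal to noise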
Sequence (Q02297 whole entry, looked up, canonical isoform): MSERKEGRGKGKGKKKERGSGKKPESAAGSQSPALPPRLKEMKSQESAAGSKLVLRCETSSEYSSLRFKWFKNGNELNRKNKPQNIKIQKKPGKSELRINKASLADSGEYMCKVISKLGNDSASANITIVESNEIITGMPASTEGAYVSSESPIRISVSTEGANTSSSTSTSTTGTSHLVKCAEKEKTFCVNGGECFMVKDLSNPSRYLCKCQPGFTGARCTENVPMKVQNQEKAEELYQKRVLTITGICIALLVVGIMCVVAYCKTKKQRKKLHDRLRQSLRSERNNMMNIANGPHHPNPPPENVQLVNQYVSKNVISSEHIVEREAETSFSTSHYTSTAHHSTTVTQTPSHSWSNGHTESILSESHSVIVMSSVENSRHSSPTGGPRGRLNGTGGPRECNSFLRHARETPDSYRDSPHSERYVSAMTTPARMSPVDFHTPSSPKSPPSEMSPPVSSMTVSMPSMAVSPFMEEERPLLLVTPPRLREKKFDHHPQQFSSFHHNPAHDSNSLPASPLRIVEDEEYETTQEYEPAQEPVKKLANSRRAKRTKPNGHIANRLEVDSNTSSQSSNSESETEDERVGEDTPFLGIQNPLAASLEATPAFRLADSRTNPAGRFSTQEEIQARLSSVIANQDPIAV
measured parameter: composite z-score

CN(C)CCCC[C@@H]1NC(=O)[C@@H]2C[C@H](C(=O)NCCCCCCNC(=O)CS)[C@H](c3cccc(OCCO)c3)N2C1=O : 0.67
C=CC[C@]1(C(=O)NCCCOC)N=C(c2ccc(OCCCO)cc2)O[C@H]1c1ccccc1 : 1.87
COc1cc2c(cc1O)C(C1CC1)N(Cc1ccc([N+](=O)[O-])o1)CC2 (centres undefined) : 1.49
CC(C)C[C@@H]1NC(=O)[C@H]2C[C@@H](C(=O)NCCCCCNC(=O)CS)[C@@H](c3ccc(O)cc3)N2C1=O : 1
CC(C)c1ccc(NN2C(C(O)C(C)C)C=CC3C(=O)N(c4ccccc4)C(=O)C32)cc1 (centres undefined) : 1.92
COC(=O)C(CC#Cc1ccc2c(c1)[C@]1(C(=O)N2)[C@H](c2ccc(O)cc2)N2[C@H](c3ccccc3)[C@H](c3ccccc3)OC(=O)[C@H]2[C@@H]1C(=O)N1CCc2cc(OC)c(OC)cc2C1)C(=O)OC : 0.296

Data request: Give its composite z-score value. Item: CN1C(=O)[C@]2(CCC(=O)OC(C)(C)C)N=C(c3ccc(OCCCO)cc3)O[C@@H]2c2ccccc21
Data returned: 1.8

Data request: Returns the measured composite z-score for the input molecule. Input: COc1ccccc1CN1C(=O)c2ccccc2[C@@H](C(=O)NCCCN(C)C)[C@@H]1c1ccc(CO)cc1
Data returned: 0.648

Data request: Given the molecule COCCOC(=O)N1C(=O)[C@@]2(c3cc(C#CC4=CCCCC4)ccc31)[C@H](c1ccc(OCCO)cc1)N1[C@H](c3ccccc3)[C@H](c3ccccc3)OC(=O)[C@H]1[C@@H]2C(=O)N1CCCCCCC1 , what is its reported composite z-score?
Data returned: 1.07

Data request: Sample COC(=O)[C@]1(CO)N=C(c2ccc(OCCCO)cc2)O[C@@H]1c1ccccc1CN=[N+]=[N-] — what was its composite z-score?
Data returned: -0.12

Data request: // lookup composite z-score for CC(C)C[C@@H]1NC(=O)C([C@@H](C)OCc2ccccc2)NC(=O)[C@@]23C(=O)N[C@@H](Cc4ccccc4)C2[C@H](C)[C@@]2(C)O[C@H]2C3/C=C/CC/C=C/CNC1=O (some centres undefined)
Data returned: 1.11

Data request: Would you mind telling me what composite z-score value was observed for NCCCC[C@@H]1NC(=O)[C@H]2C[C@@H](C(=O)NCc3ccc(F)cc3)[C@@H](c3ccc(O)cc3)N2C1=O ?
Data returned: 2.12

Data request: I have this molecule here, CCCCCCc1nc(-c2ccc(OC)nc2)cc2c1[Si](C(C)C)(C(C)C)OC2 , and I need its recorded composite z-score.
Data returned: -0.151

Data request: Could you share which composite z-score value was measured for COCCOC(=O)N1C(=O)[C@@]2(c3cc(C#CCCO)ccc31)[C@H](c1ccc(O)cc1)N1[C@H](c3ccccc3)[C@H](c3ccccc3)OC(=O)[C@H]1[C@@H]2C(=O)N1CCc2cc(OC)c(OC)cc2C1 ?
Data returned: 1.04

* * *

system: Chordin-like protein 2 (CHRDL2); assay: CHRDL2 small-molecule binders, primary screen, biochemical, small-molecule microarray, 635 nm fluorescence (AID 1126); conditions: small-molecule microarray binding, fluorescence 635 nm; higher = more signal;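 further: printed compound slides probed with Chrdl2 protein at 4 µg/mL for 1 h at 4 C; score merges 667 nm emission intensity with signal to noise over three replicate slides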
measured parameter: composite z-score
Just the number.

The cases that follow already have their composite z-score on record.
CC(=O)NCCCC[C@@H]1NC(=O)[C@H]2C[C@@H](C(=O)NCCCCCC[N+](C)(C)C)[C@@H](c3ccc(O)cc3)N2C1=O : 1.4
CCCCN1CC=CC23O[C@@H]4C=CCOC(=O)[C@@H]4[C@H]2C(=O)N(C(CO)C(C)C)[C@@H]3C1=O (stereo partly specified) : -0.0407
COCCOC(=O)N1C(=O)[C@@]2(c3cc(C#CC4=CCCCC4)ccc31)[C@H](C(=O)N1CCN(c3ncccn3)CC1)[C@H]1C(=O)O[C@H](c3ccccc3)[C@H](c3ccccc3)N1[C@@H]2c1ccccc1OCCO : 0.277

Data request: Tell me the measured composite z-score of CC[C@H](C)C(=O)O[C@H]1CC[C@]2(C)C3=C(CCC2C1(C)C)[C@]1(C)CC[C@H]([C@H](C)CCCC(C)C)[C@@]1(C)CC3 (stereo partly specified) , please.
Data returned: 0.367

Data request: Which composite z-score is listed for CCCCC(=C=CC[C@@H](O)c1cccc(OCCO)c1)C[C@@H](O)COCc1ccccc1 ?
Data returned: -0.598

Data request: What value of composite z-score has been reported for the following compound? COc1cccc(OC)c1C(=O)O[C@H]1[C@@H]2OC(=O)[C@H](Cc3cccc(Br)c3)C/C=C/C[C@@H](Cc3cccc(Br)c3)C(=O)O[C@H]2[C@@H](OC)O[C@@H]1CO
Data returned: 0.351

Data request: Find the recorded composite z-score belonging to CCCC[C@H]1OB(O)C[C@H]2C1=C(COC)C[C@H]1C(=O)C=CC(=O)[C@H]12 and report it.
Data returned: 0.676

Data request: Recorded composite z-score for O=C1C2C=CC(C(O)c3cccs3)N(Nc3ccccc3)C2C(=O)N1c1ccccc1 (stereo unspecified) , please?
Data returned: 0.568

Data request: So what's the measured composite z-score for this one? COc1ccc(NC(=O)O[C@H]2[C@H](OC(=O)Nc3ccc4c(c3)OCO4)[C@H](OC(=O)Nc3ccc4c(c3)OCO4)[C@@H](OC)O[C@@H]2CO)cc1
Data returned: 0.0872

Data request: What value of composite z-score has been reported for the following compound? COC(=O)[C@@]1(CCC(=O)OC(C)(C)C)N=C(c2ccc(OCCCO)cc2)O[C@H]1c1ccccc1CN=[N+]=[N-]
Data returned: -0.141

Data request: So what's the measured composite z-score for this one? CC(=O)c1ccc(C(O)C2C=CC3C(=O)NC(=O)C3N2Nc2ccc(Cl)cc2Cl)cc1 (stereo unspecified)
Data returned: 0.0823

Data request: For the compound C=CCC(OC(C)=O)[C@@H]1[C@@H](N(Cc2cccc3ccccc23)C(=O)c2ccc(-c3ccccc3)cc2)c2cc(OCCCO)ccc2N1C(=O)c1ccc2ccccc2n1 (stereo partly specified) , what composite z-score is on record?
Data returned: 0.41

Data request: I am curious: what composite z-score value has been reported for COc1ccc(CCNC(=O)[C@@]2(C)c3ccccc3C(=O)N(Cc3cc(C(F)(F)F)cc(C(F)(F)F)c3)[C@H]2c2ccc(CO)cc2)cc1 ?
Data returned: 0.394

Data request: Request the reported composite z-score associated with CC1CC/C=C\[C@H]2OC34C=CCN(CCN5CCOCC5)C(=O)[C@H]3N(CCCCCCO)C(=O)[C@@H]4C2C(=O)O1 (stereo partly specified)
Data returned: -0.756

Data request: Give its composite z-score value. Item: COc1ccc([Si](C)(C)[C@@H]2[C@@H](CCO)O[C@]3(C(=O)N(Cc4ccccc4)c4ccc(N5C(=O)c6ccccc6Oc6ccccc65)cc43)[C@H]2C)cc1
Data returned: -1.36

Data request: Record request: composite z-score value, item COCCOC(=O)N1C(=O)[C@@]2(c3cc(C#CC4(O)CCCCCC4)ccc31)[C@H](c1ccccc1OCCO)N1[C@H](c3ccccc3)[C@H](c3ccccc3)OC(=O)[C@H]1[C@@H]2C(=O)N1CCCCCCC1
Data returned: 0.905

Data request: # lookup: composite z-score of O=C1O[C@@H](c2ccccc2)[C@@H](c2ccccc2)N2[C@@H](c3ccc(OCCO)cc3)[C@]3(C(=O)Nc4ccc(C#CCCO)cc43)[C@@H](C(=O)Nc3nc4ccccc4s3)[C@H]12
Data returned: 0.324

Data request: Sample COCCOC(=O)N1C(=O)[C@@]2(c3cc(C#CCCO)ccc31)[C@H](C(=O)N1CCc3cc(OC)c(OC)cc3C1)[C@H]1C(=O)O[C@H](c3ccccc3)[C@H](c3ccccc3)N1[C@@H]2c1ccccc1OCCO — what was its composite z-score?
Data returned: 0.855

Data request: Could you share which composite z-score value was measured for COc1ccccc1CN1C(=O)c2ccccc2[C@@H](C(=O)NCCCN(C)C)[C@@H]1c1ccc(CO)cc1 ?
Data returned: 0.288

Data request: For CC(=O)NCCCC[C@@H]1NC(=O)[C@@H]2C[C@H](C(=O)NCCCCCC[N+](C)(C)C)[C@H](c3ccc(O)cc3)N2C1=O , what is its reported composite z-score?
Data returned: 0.965

Data request: Which composite z-score reading was recorded for the compound COc1ccc(CCNC(=O)[C@@]2(Sc3ccc(C)cc3)CC(=O)N(Cc3cc(C(F)(F)F)cc(C(F)(F)F)c3)[C@@H]2c2ccc(CO)cc2)cc1 ?
Data returned: -2.73

Data request: Fill blank: measured composite z-score of the compound NC(=O)NCC#Cc1ccc2c(c1)[C@]1(C(=O)N2)[C@H](C(=O)Nc2nc3ccccc3s2)[C@H]2C(=O)O[C@H](c3ccccc3)[C@H](c3ccccc3)N2[C@@H]1c1ccc(OCCO)cc1 is ____.
Data returned: -0.258

Data request: Look at this compound and give its reported composite z-score. CC(C)CNC(=O)[C@@H]1c2ccccc2C(=O)N(CC23CC4CC(CC(C4)C2)C3)[C@H]1c1ccc(CO)cc1
Data returned: -0.284
